Would you mind telling me the reported EC50 (second run) of each entry?
# targetUnderTest: PD-L1 on CHO cell line highly expressing PD-L1 (PD-1/PD-L1 blockade bioassay kit, promega J1250) (UniProt Q9NZQ7 19-290, limits assumed)
# Sequence (Q9NZQ7 19-290 limits assumed): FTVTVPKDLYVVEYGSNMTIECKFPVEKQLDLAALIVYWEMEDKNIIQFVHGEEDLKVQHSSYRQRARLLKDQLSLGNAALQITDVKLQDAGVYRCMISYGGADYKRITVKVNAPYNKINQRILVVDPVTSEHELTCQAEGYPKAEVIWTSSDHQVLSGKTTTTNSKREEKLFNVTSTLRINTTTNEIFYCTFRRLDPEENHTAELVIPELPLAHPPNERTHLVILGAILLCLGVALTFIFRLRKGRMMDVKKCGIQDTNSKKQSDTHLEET
# assayNotes: cell-based or functional assay
Give just the number in nM; leave the unit off.

q: Give the measured EC50 (second run) for PDL1-16E12 (LS/4C9) (antibody, V domains shown, also called PD-L1-16E12-4C9) VH: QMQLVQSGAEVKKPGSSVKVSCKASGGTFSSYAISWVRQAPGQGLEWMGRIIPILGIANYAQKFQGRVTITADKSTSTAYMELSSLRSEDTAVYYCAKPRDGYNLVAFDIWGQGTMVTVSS VL: QLVLTQPPSVSGAPGQRVTISCTGGSSNIGAGYDVHWYQQLPGTAPKLLLFGNTNRPSGVPGRFSGSKSGSSASLAITGLQSDDEADYYCQSYDSSLGGSVIGTGTKVTVL
a: 0.4

q: Give the measured EC50 (second run) for PDL1-16E12 (LS/4H5) (antibody, V domains shown, also called PD-L1-16E12-4H5) VH: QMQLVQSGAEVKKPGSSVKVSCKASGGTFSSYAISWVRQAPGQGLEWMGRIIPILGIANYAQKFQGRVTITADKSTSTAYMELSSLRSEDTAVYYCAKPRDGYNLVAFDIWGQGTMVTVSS VL: QLVLTQPPSVSGAPGQRVTISCTGSSSNIGAGYDVHWYQQLPGTAPKLLIYGNSNRPSGVPDRFSGSKSGTSASLAITGLQAEDEADYYCQSYDSSLSGGVFGGGTKLTVL
a: 0.26

q: Give the measured EC50 (second run) for PDL1-16E12 (LS/4F5) (antibody, V domains shown, also called 16E12(4F5); 16E12-4F5) VH: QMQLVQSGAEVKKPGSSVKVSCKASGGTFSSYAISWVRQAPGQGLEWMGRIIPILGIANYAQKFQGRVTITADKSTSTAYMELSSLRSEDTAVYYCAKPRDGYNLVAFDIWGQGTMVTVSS VL: QLVLTQPPSVSGAPGQRVTISCTGSSSNIGAGYDVHWYQQLPGAAPKLLIYGDINRPSGVPDRFSGSKSGISASLAITGLQAEDEADYYCQSYDSSLSGGVFGGGTKLTVL
a: 0.21
